- Test system: Escherichia coli TOP10;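 note: peptides expressed intracellularly from a pBAD plasmid library in pooled LB shake-flask culture, induced with 0.3% L-arabinose, DNA abundance read by NGS, three biological replicates, DESeq2 with apeglm shrinkage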
- Assay overview: shrunken log2 fold change of peptide-encoding DNA abundance (4.5 h post-induction vs induction); higher = less antimicrobial activity (less host growth inhibition)
- Protocol conditions: time post-induction: 4.5 h; library: site-saturation at positions 5, 18, 19, 20
Please use the following shrunken log2 fold change ranges when assigning a class: bucket 1 (below -0.2), bucket 2 (-0.2 to below 0.6), bucket 3 (0.6 or more)

{"Sequence record": "RRIRKRPPRLPRPRPRPPQNPRP", "Cat": "bucket 3"}
{"Sequence record": "RRIRWRPPRLPRPRPRPTEFPRP", "Cat": "bucket 2"}
{"Sequence record": "RRIRDRPPRLPRPRPRPDQPPRP", "Cat": "bucket 2"}
{"Sequence record": "RRIRCRPPRLPRPRPRPFVLPRP", "Cat": "bucket 1"}
{"Sequence record": "RRIRGRPPRLPRPRPRPATSPRP", "Cat": "bucket 3"}
{"Sequence record": "RRIRKRPPRLPRPRPRPAFAPRP", "Cat": "bucket 3"}
{"Sequence record": "RRIRGRPPRLPRPRPRPCGCPRP", "Cat": "bucket 3"}
{"Sequence record": "RRIRNRPPRLPRPRPRPKTKPRP", "Cat": "bucket 2"}
{"Sequence record": "RRIRERPPRLPRPRPRPNSAPRP", "Cat": "bucket 1"}
{"Sequence record": "RRIRARPPRLPRPRPRPGERPRP", "Cat": "bucket 2"}
{"Sequence record": "RRIRPRPPRLPRPRPRPGGNPRP", "Cat": "bucket 2"}
{"Sequence record": "RRIRVRPPRLPRPRPRPQPKPRP", "Cat": "bucket 2"}
{"Sequence record": "RRIRNRPPRLPRPRPRPSIQPRP", "Cat": "bucket 1"}
{"Sequence record": "RRIRYRPPRLPRPRPRPMLNPRP", "Cat": "bucket 1"}
{"Sequence record": "RRIRLRPPRLPRPRPRPLHLPRP", "Cat": "bucket 1"}
